growth inhibition values, listed per item
experiment: NCI Yeast Anticancer Drug Screen. Data for the bub3 strain (AID 167); settings: S. cerevisiae bub3 mutant strain, at 100.0 µM, active compounds read high
The panel holds about 79,000 compounds, 15% with a hit somewhere; the sample as a whole holds those more often.
State just the number; it will be interpreted in %.

# example entries with known answers
> print(dat)
                                   molecule  observed.property  observed
1  COC(=O)C1C2c3ccccc3C(c3ccccc32)C1C(=O)OC (centres undefined)  growth inhibition         2
2  CCc1cccc(C(C)C)c1NC1=C([n+]2ccc(C)cc2)C(=O)c2ccccc2C1=O  growth inhibition        25
3  COC(COC(=O)N1CCN(C=O)CC1)C1=C(N2CC2)C(=O)C(C)=C(N2CC2)C1=O (centres undefined)  growth inhibition        18
4  O=c1oc2ccccc2c(O)c1C(c1ccc2ccccc2c1)c1c(O)c2ccccc2oc1=O  growth inhibition        97
5  CC1(Cl)CC(C)(/C=C/Cl)C(Cl)CC1Cl (centres undefined)  growth inhibition        31
6  CC[C@]1(O)CC(OC2CC(N(C)C)C(O)C(C)O2)c2c(cc3c(c2O)C(=O)c2c(O)cccc2C3=O)[C@@H]1C(=O)OC (some centres undefined)  growth inhibition        98

For record C[N+]1(CCCl)CC[N+](C)(CCCl)CC1 (centres undefined) the listed growth inhibition is 97

Sure, the documented growth inhibition for `CNCC(O)c1ccc(O)c(O)c1.[Pt].c1ccc([PH+](c2ccccc2)c2ccccc2)cc1.c1ccc([PH+](c2ccccc2)c2ccccc2)cc1` is 96

growth inhibition in this record for c1cc2c(cc1C1OC[C@H]3[C@@H](c4ccc5c(c4)OCO5)OC[C@@H]13)OCO2 (some centres undefined) : 39

###

The entries below are paired with their reported growth inhibition.
experiment: NCI Yeast Anticancer Drug Screen. Data for the bub3 strain (AID 167); conditions: S. cerevisiae bub3 mutant strain, at 11.0 µM, active compounds read high
About 79,000 compounds went through this panel and 15% of them were active in at least one assay; those are over-represented in the sample as a whole.
Enter your answer as a number in %; do not include the unit.

Answered cases to consult:
> print(dat)
                                   molecule  quantity.unit  observed
1                           Oc1cccc2cccnc12              %        97
2          CC[PH+](CC)CC.CC[PH+](CC)CC.[Au]              %        21
3      O=C(O)CCCc1cc(I)c(N(CCCl)CCCl)c(I)c1              %       -60
4  O=[N+]([O-])c1ccc(-n2nc3ccc4c(no[n+]4[O-])c3[n+]2[O-])c([N+](=O)[O-])c1              %        10
5  CC1CN1C1=C(Cl)C(=O)C(N2CC2C)=C(Cl)C1=O (stereo unspecified)              %        29

Please examine the following record next.
The molecule CCCCN(CCCC)CC(C(C)=O)C(c1ccccc1)c1c(O)c2ccccc2oc1=O (stereo unspecified) showed growth inhibition equal to 15

###

assay: NCI Yeast Anticancer Drug Screen. Data for the CLN2oe strain (AID 163);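 note: 0% = growth of vehicle-only control cultures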; settings: S. cerevisiae CLN2oe strain, at 100.0 µM
Compounds without any hit were thinned out: in the full panel of roughly 79,000, 15% have a hit. Activity calls are given as the source filed them. Cut-off read from the data, not from the text of the source: active = growth inhibition above about 70%; inactive = the rest.
Permitted responses: T = active, F = inactive

Record excerpt, results attached:
> print(dat)
                                   molecule  assigned.category
1  COC1C(O)C(C)OC(OC2C(Oc3cccc4c(O)c5c(=O)oc6ccc(C)c7c(=O)oc(c34)c5c67)OC(C)C(O)C2O)C1O (stereo not given)                  F
2  O=C1NC(=S)NC(=O)C1=Cc1ccc([N+](=O)[O-])o1                  T
3  OC(c1ccc(Br)cc1)C(Cl)(Cl)Cl (stereo not given)                  T
4  O=C(O)C1C2C=CC(C2)C1c1ccccc1 (stereo not given)                  F
5                     Cc1c2ccccc2cc2ccccc12                  T

Q) Query: recorded result category for `CN(CCc1ccc(Br)cc1)CCN1CCCCC1` in this test
A) T

Q) Test call for this molecule, please: CC1=C(O)C(=O)C=C2C1=CC=C1[C@@]2(C)CCC2(C)[C@@H]3C[C@@H](C)C(=O)C[C@]3(C)CC[C@]12C (stereo not given in full)
A) T

Q) Kindly provide the recorded test outcome for the following molecule: `N#Cc1cc(N(CCCl)CCCl)c([N+](=O)[O-])cc1[N+](=O)[O-]`
A) T

Q) Assay outcome for `C=CC[N+]12CN3CN(CN(C3)C1)C2` : what was it?
A) T

Q) Please state the recorded outcome for this molecule: `CNCC(O)c1ccc(O)c(O)c1.[Pt].c1ccc([PH+](c2ccccc2)c2ccccc2)cc1.c1ccc([PH+](c2ccccc2)c2ccccc2)cc1`
A) T
